meta.source: patent US9908897B2

# TESTED_TARGET: human serotonin transporter (SERT) (Homo sapiens (Human), UniProt P31645)
# Sequence (P31645 whole entry): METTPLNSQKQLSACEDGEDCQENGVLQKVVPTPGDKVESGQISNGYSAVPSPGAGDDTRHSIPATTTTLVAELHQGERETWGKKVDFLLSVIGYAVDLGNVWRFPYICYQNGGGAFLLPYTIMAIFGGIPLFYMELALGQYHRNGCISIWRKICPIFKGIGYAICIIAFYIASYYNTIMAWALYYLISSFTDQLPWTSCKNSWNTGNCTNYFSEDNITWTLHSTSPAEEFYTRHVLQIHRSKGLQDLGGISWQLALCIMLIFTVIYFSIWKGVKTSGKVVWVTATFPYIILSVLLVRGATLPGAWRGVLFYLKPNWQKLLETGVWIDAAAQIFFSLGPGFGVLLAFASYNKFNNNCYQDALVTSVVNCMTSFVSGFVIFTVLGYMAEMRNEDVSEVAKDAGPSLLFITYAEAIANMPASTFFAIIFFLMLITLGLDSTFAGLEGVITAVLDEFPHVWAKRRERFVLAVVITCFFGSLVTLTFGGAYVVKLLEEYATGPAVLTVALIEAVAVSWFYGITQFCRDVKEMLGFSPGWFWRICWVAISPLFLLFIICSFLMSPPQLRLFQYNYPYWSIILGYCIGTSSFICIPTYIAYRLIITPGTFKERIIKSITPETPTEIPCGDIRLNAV
# ASSAY_REMARKS: Scintillation Proximity Assay (SPA) competition binding, human SERT
# REPORTED_CONDITIONS: recombinant hSERT-CHO membranes, [3H]citalopram
# Text: Measure of Affinity to the Human Transporters DAT, NET and SERT Affinity is expressed in terms of inhibition constant (Ki) of the compounds of the invention for DAT, NET and SERT, and it is typically calculated from the IC50 values obtained in competition experiments using Cheng and Prusoff equation (Cheng and Prusoff, Biochem. Pharmacol. 22:3099, 1973). […]
Catalogue of pIC50 SERT values

COMPOUND: Cl.Fc1cccc(Oc2ccnc(N3CCC4(CC3)CNCCO4)n2)c1
TESTED_TARGET: human serotonin transporter (SERT) (Homo sapiens (Human), UniProt P31645)
pIC50 SERT: 4.69
//
COMPOUND: CSc1cc(N2CCC3(CC2)CNCCO3)nc(Oc2cccc(F)c2)n1.Cl
TESTED_TARGET: human serotonin transporter (SERT) (Homo sapiens (Human), UniProt P31645)
pIC50 SERT: 4.86
//
COMPOUND: Cl.Fc1ccc(Oc2cc(C(F)(F)F)nc(N3CCC4(CC3)CNCCO4)n2)cc1
TESTED_TARGET: human serotonin transporter (SERT) (Homo sapiens (Human), UniProt P31645)
pIC50 SERT: 7.31
//
COMPOUND: N#Cc1ccc(Oc2ccccc2)cc1N1CCC2(CC1)CNCCO2
TESTED_TARGET: human serotonin transporter (SERT) (Homo sapiens (Human), UniProt P31645)
pIC50 SERT: 5.15
//
COMPOUND: OC1CNCCC12CCN(c1nc(Oc3cccc(F)c3)cc(C(F)(F)F)n1)C2 (centres unmarked) [Example 96]
TESTED_TARGET: human serotonin transporter (SERT) (Homo sapiens (Human), UniProt P31645)
pIC50 SERT: 5.25

---

# TESTED_TARGET: human norepinephrine transporter (NET) (Homo sapiens (Human), UniProt P23975)
# Sequence (P23975 whole entry): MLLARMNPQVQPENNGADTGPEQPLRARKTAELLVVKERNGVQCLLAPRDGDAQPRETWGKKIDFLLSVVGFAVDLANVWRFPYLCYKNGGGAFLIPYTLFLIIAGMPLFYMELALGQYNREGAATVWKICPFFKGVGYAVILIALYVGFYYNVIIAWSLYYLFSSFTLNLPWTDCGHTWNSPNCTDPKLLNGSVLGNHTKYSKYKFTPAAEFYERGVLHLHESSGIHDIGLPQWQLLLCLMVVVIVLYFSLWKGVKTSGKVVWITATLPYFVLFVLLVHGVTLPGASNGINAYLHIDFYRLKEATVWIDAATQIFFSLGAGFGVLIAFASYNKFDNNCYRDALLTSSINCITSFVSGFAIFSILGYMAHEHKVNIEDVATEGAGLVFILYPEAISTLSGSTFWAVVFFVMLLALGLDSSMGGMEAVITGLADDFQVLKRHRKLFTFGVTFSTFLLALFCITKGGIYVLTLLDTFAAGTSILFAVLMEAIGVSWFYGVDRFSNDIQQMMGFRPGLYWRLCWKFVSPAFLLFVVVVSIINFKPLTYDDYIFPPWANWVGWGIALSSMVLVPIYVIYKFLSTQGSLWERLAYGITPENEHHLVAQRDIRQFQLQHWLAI
# ASSAY_REMARKS: Scintillation Proximity Assay (SPA) competition binding, human NET
# REPORTED_CONDITIONS: recombinant hNET-CHO membranes, [3H]nisoxetine
Criterion: pIC50 NET meeting or surpassing 6. Met: 1. Not met: 0.

COMPOUND: c1ccc(Oc2ccccc2N2CCC3(CC2)CNCCO3)cc1 [Example 3]
CAT: 0

COMPOUND: Fc1cccc(Oc2cc(N3CCC4(CC3)CNCCO4)ccc2F)c1 [Example 11]
CAT: 0

COMPOUND: Fc1cccc(Oc2cc(F)cc(N3CCC4(CC3)CNCCO4)c2F)c1 [Example 21]
CAT: 1

COMPOUND: Fc1cccc(Oc2cc(F)c(F)cc2N2CCCC3(CCCNC3)C2)c1 (stereo not drawn) [Example 81]
CAT: 1

COMPOUND: Cl.Fc1cccc(Oc2cc(C(F)(F)F)nc(N3CCC4(CC3)COCCN4)n2)c1 [Example 78]
CAT: 1

COMPOUND: Fc1cccc(Oc2cc(F)c(F)cc2N2CCC3(CCNCC3)C2)c1 [Example 90]
CAT: 1

COMPOUND: Cl.FC(F)(F)c1cc(Oc2cccs2)nc(N2CCC3(CC2)CNCCO3)n1 [Example 60]
CAT: 0

COMPOUND: COc1ccccc1Oc1cc(C)nc(N2CCC3(CC2)CNCCO3)n1.Cl [Example 52]
CAT: 0

---

Catalogue of pIC50 SERT values
# TESTED_TARGET: human serotonin transporter (SERT) (Homo sapiens (Human), UniProt P31645)
# ASSAY_REMARKS: Scintillation Proximity Assay (SPA) competition binding, human SERT
# REPORTED_CONDITIONS: recombinant hSERT-CHO membranes, [3H]citalopram
TEST_READOUT: pIC50 SERT

COMPOUND: Fc1cccc(Oc2cc(N3CCC4(CC3)CNCCO4)c(F)cc2F)c1
ENDPOINT_RESULT: 5.97

COMPOUND: Cl.Fc1ccccc1Oc1cc(C(F)(F)F)nc(N2CCC3(CC2)CNCCO3)n1
ENDPOINT_RESULT: 6.18

COMPOUND: Fc1cccc(Oc2cccc(N3CCC4(CC3)CNCCO4)c2)c1
ENDPOINT_RESULT: 5.99

COMPOUND: N#Cc1ccc(Oc2ccccc2)c(N2CCC3(CC2)CNCCO3)c1
ENDPOINT_RESULT: 7.63

COMPOUND: Fc1cccc(Oc2cc(F)c(F)cc2N2CCCC3(CCCNC3)C2)c1 (centres unmarked)
ENDPOINT_RESULT: 6.71

---

# TESTED_TARGET: human dopamine transporter (DAT) (Homo sapiens (Human), UniProt Q01959)
# Sequence (Q01959 whole entry): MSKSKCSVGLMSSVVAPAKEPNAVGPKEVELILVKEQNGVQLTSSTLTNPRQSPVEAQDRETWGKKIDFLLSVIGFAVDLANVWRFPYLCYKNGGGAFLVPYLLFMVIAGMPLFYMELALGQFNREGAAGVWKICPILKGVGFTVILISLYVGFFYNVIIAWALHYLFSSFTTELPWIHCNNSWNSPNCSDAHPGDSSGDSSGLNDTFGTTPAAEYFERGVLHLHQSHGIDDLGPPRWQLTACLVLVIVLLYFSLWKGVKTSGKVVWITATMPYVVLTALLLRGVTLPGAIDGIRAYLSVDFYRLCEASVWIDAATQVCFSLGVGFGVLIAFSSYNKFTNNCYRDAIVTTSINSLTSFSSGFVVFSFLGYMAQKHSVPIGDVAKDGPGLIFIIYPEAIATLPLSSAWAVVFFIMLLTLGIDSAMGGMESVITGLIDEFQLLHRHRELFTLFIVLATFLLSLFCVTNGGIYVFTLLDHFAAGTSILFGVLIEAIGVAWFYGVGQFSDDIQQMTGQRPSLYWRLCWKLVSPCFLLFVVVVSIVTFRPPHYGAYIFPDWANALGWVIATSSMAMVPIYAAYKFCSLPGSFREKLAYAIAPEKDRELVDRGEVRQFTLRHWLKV
# ASSAY_REMARKS: Scintillation Proximity Assay (SPA) competition binding, human DAT
# REPORTED_CONDITIONS: recombinant hDAT-CHO membranes, [3H]WIN-35,428
TEST_READOUT: pIC50 DAT

COMPOUND: Fc1cccc(Oc2cc(F)c(F)cc2N2CCC3(CCCNC3)C2)c1 (centres unmarked) [Example 84]
ENDPOINT_RESULT: 7.94
//
COMPOUND: Cl.N#Cc1cccc(Oc2cc(C(F)(F)F)nc(N3CCC4(CC3)CNCCO4)n2)c1 [Example 59]
ENDPOINT_RESULT: 8.01
//
COMPOUND: Cl.Fc1cccc(Oc2cc(C(F)(F)F)nc(N3CCOC4(CCNCC4)C3)n2)c1 [Example 67]
ENDPOINT_RESULT: 7.80
//
COMPOUND: Fc1cccc(Oc2cc(F)c(F)cc2N2CCC3(CCNCC3)CC2)c1 [Example 82]
ENDPOINT_RESULT: 8.14
//
COMPOUND: Cl.N#Cc1cc(Oc2cccc(F)c2)nc(N2CCC3(CC2)CNCCO3)c1 [Example 38]
ENDPOINT_RESULT: 8.61
//
COMPOUND: COc1cc(Oc2cccc(F)c2)nc(N2CCC3(CC2)CNCCO3)n1.Cl [Example 66]
ENDPOINT_RESULT: 8.29
//
COMPOUND: CN1CCCNC(=O)C12CCN(c1nc(Oc3cccc(F)c3)cc(C(F)(F)F)n1)CC2 [Example 76]
ENDPOINT_RESULT: 7.28
//
COMPOUND: Fc1cccc(Oc2cc(N3CCC4(CC3)CNCCO4)cc(F)c2F)c1 [Example 15]
ENDPOINT_RESULT: 7.05
//
COMPOUND: Fc1cccc(Oc2cc(F)c(F)cc2N2CCC3(CC2)CNCCO3)c1 [Example 1]
ENDPOINT_RESULT: 7.96
//
COMPOUND: Cl.FC(F)(F)c1cc(Oc2cccs2)nc(N2CCC3(CC2)CNCCO3)n1 [Example 60]
ENDPOINT_RESULT: 7.34
//
COMPOUND: Fc1cccc(Oc2cc(F)c(F)cc2N2CCCC3(CCCNC3)C2)c1 (centres unmarked) [Example 81]
ENDPOINT_RESULT: 7.18
//
COMPOUND: Cl.N#Cc1c(C(F)(F)F)cc(Oc2cccc(F)c2)nc1N1CCC2(CC1)CNCCO2 [Example 40]
ENDPOINT_RESULT: 7.25
//
COMPOUND: Fc1cccc(Oc2cc(F)cc(N3CCC4(CC3)CNCCO4)c2F)c1 [Example 21]
ENDPOINT_RESULT: 9.11
//
COMPOUND: Cl.Fc1cccc(Oc2cncc(N3CCC4(CC3)CNCCO4)n2)c1 [Example 41]
ENDPOINT_RESULT: 7.44
//
COMPOUND: Cl.Fc1ccc(Oc2cc(C(F)(F)F)nc(N3CCC4(CC3)CNCCO4)n2)cc1 [Example 58]
ENDPOINT_RESULT: 7.53
//
COMPOUND: Cl.Fc1cccc(Oc2cc(C(F)(F)F)nc(N3CCC4(CCNCC45OCCO5)C3)n2)c1 (centres unmarked) [Example 95]
ENDPOINT_RESULT: 8.16
//
COMPOUND: Cl.Fc1cccc(Oc2cc(C(F)(F)F)nc(N3CCC4(CC3)CNCC(F)(F)O4)n2)c1 [Example 70]
ENDPOINT_RESULT: 6.65
//
COMPOUND: Cl.Fc1cccc(Oc2cc(C3CC3)nc(N3CCC4(CC3)CNCCO4)n2)c1 [Example 65]
ENDPOINT_RESULT: 8.79
//
COMPOUND: Cc1cc(Oc2cccc(C#N)c2)nc(N2CCC3(CC2)CNCCO3)n1.Cl [Example 46]
ENDPOINT_RESULT: 8.03
//
COMPOUND: Fc1cccc(Oc2cc(F)c(F)cc2N2CCC3(CCNCC3)C2)c1 [Example 90]
ENDPOINT_RESULT: 8.36

---

Catalogue of pIC50 SERT values
# TESTED_TARGET: human serotonin transporter (SERT) (Homo sapiens (Human), UniProt P31645)
# ASSAY_REMARKS: Scintillation Proximity Assay (SPA) competition binding, human SERT
# REPORTED_CONDITIONS: recombinant hSERT-CHO membranes, [3H]citalopram

MOLECULE: Cl.Fc1cccc(Oc2cc(F)cc(N3CCC4(CC3)CNCCO4)c2)c1 [Example 9]
pIC50 SERT: 7.00
--
MOLECULE: Cc1cc(Oc2cc(F)cc(F)c2)nc(N2CCC3(CC2)CNCCO3)n1.Cl [Example 50]
pIC50 SERT: 5.11
--
MOLECULE: Fc1cccc(Oc2cc(N3CCC4(CC3)CNCCO4)cc(F)c2F)c1 [Example 15]
pIC50 SERT: 7.03
